Data credit: paper PMC5701947

system: T cells (lymph node cells/splenocytes from immunized animals); assay: T cell proliferation assay ([3H]-thymidine); assay type: cell-based, A/J mice; details: 100 μg/ml; animals immunized with pool II; fold vs medium control
Observation Type: T cell responses
Param answer (str): number followed by unit.

A selection of reference data follows.
# value lookup — system T cells (lymph node cells/splenocytes from immunized animals), readout T cell responses, item VNTFVHESLADVQA [RNase 43–56, bovine ribonuclease 43–56, irrelevant control, reference compound]
1.20 fold

// fetch T cells (lymph node cells/splenocytes from immunized animals) T cell responses for β1AR 71-90: 20-mer of mouse β1AR peptide library (LIVVGNVLVIVAIAKTPRLQ; UniProt P34971 71-90, looked up, fragment)
3.78 fold

New cases:
Notebook: pull reported T cell responses for T cells (lymph node cells/splenocytes from immunized animals), entry β1AR 91-110: 20-mer of mouse β1AR peptide library (TLTNLFIMSLASADLVMGLL; UniProt P34971 91-110, looked up, fragment)
1.93 fold
